# procedure.details: chemical genetic growth profiling, strain panel (AID 1159580);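 also: tested at 20 µM; growth read once vehicle control cultures reached saturation at 30 °C; 1 = growth at the plate median or of vehicle wells; lower values mean less growth of the strain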
# measurement.conditions: S. cerevisiae deletion strains, growth OD, locus YEL061C, strain CIN8, hits give low values
The whole screen tested about 5,500 compounds, of which about 2,000 (36%) were called active. About 18% were inconclusive and are not listed. The list shows a part of the results.
measured.parameter: normalized growth
The reply should be a number, written without any unit.

A selection of reference data follows.
compound	measured.parameter	assay.result
CC1CN=C(NC2CCCCC2)S1 (stereo not given)	normalized growth	1.01
O=[N+]([O-])c1cc(C(F)(F)F)cc([N+](=O)[O-])c1Oc1ccc(Cl)c(Cl)c1	normalized growth	0.053
Cc1cc(Oc2c([N+](=O)[O-])cc(C(F)(F)F)cc2[N+](=O)[O-])c2c(Cl)ccc(C)c2n1	normalized growth	0.788
COc1ccc(NS(=O)(=O)c2ccc(N)cc2)nn1	normalized growth	1.02

Now, please, on to the next compound.
-- ask Item under review: CCCN(CCC)c1c([N+](=O)[O-])cc(C(F)(F)F)cc1[N+](=O)[O-] . Reported normalized growth?
-- reply 1.01

* * *

# procedure.details: chemical genetic growth profiling, strain panel (AID 1159580);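 also: tested at 20 µM; growth read once vehicle control cultures reached saturation at 30 °C; 1 = growth at the plate median or of vehicle wells; lower values mean less growth of the strain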
# measurement.conditions: S. cerevisiae deletion strains, growth OD, locus YHR079C, strain IRE1, hits give low values
Screen size: about 5,500 compounds; about 2,000 (36%) were called active. About 18% were inconclusive and are not listed. The list shows a part of the results.
measured.parameter: normalized growth
Just the number, please, no unit attached.

Here are 6 compounds together with their reported answers.
compound	normalized growth
COc1cc(O)ccc1C(C)=O	1.01
CC(=O)OC[C@@]1(O)C[C@@]23CCC4c5ccoc5CC[C@]4(C)C2CC[C@@H]1C3 (some centres undefined)	0.918
Cc1cc2c(s1)Nc1ccccc1N=C2N1CCN(C)CC1	0.976
O=C(CCc1ccc(O)cc1)c1c(O)cc(O)cc1O	0.983
CCCCCCCCCCCCCCCC(=O)OC[C@H](NC(=O)C(Cl)Cl)[C@H](O)c1ccc([N+](=O)[O-])cc1	0.985
O=c1c(O)c(-c2ccccc2)oc2ccc3occc3c12	0.956

Now consider a different compound.
-- ask Consider the compound C/C(=C\CO)CC[C@H](C)CCC[C@H](C)CCCC(C)C and give its measured normalized growth.
-- reply 0.966

* * *

# procedure.details: chemical genetic growth profiling, strain panel (AID 1159580);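 also: tested at 20 µM; growth read once vehicle control cultures reached saturation at 30 °C; 1 = growth at the plate median or of vehicle wells; lower values mean less growth of the strain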
# measurement.conditions: S. cerevisiae deletion strains, growth OD, locus YOR316C, strain cot1, hits give low values
Among all 5,500 compounds or so, about 2,000 (36%) were called active. Another 18% or so got no clear call; they are omitted. Some of the results follow.
measured.parameter: normalized growth
// response body must contain only the number

// known answers, use as guide
compound	normalized growth
Cn1c(=O)c2c(ncn2CCCl)n(C)c1=O	1.02
Cn1c(=O)c2c(ncn2C)n(C)c1=O	1.01
CC(C)c1cc2c(c(O)c1O)[C@@]1(C(=O)O)CCCC(C)(C)C1CC2 (some centres not stated)	1.02
Cn1c(=O)[nH]c2ncn(C)c2c1=O	0.987
COc1cc2cccc(OC)c(=O)c2c(OC)c1OC	1.01
CC(=O)CCCCn1c(=O)c2c(ncn2C)n(C)c1=O	0.999

-- ask Query (compound): CC(C)N1C(=O)c2ccccc2NS1(=O)=O ; field requested: normalized growth
-- reply 1.01
